Entries and their GI90
Test system: HCT-116
Test: Cytotoxicity against human HCT116 cells assessed as growth inhibition after 48 hrs by MTT assay
Assay type: cell-based
Conditions: hct-116, 48 h

entry_smiles	GI90
CC(=O)O[C@H]1C(=O)[C@@]2(C)[C@H]([C@H](OC(=O)c3ccccc3)[C@]3(O)C[C@H](OC(=O)[C@H](O)[C@@H](NC(=O)c4ccccc4)c4ccccc4)C(C)=C1C3(C)C)[C@]1(OC(C)=O)CO[C@@H]1C[C@@H]2O	5.715 µg/mL
CN1C/C(=C\c2cc3ccccc3nc2Cl)C(=O)/C(=C/c2cc3ccccc3nc2Cl)C1	> 100 µg/mL
COc1ccc2cc(/C=C3\CN(C)C/C(=C\c4cc5ccc(OC)cc5nc4Cl)C3=O)c(Cl)nc2c1	> 100 µg/mL
Cc1ccc2cc(/C=C3\CN(C)C/C(=C\c4cc5ccc(C)cc5nc4Cl)C3=O)c(Cl)nc2c1	> 100 µg/mL
O=C1/C(=C/c2cc3cc(F)ccc3nc2Cl)CNC/C1=C\c1cc2cc(F)ccc2nc1Cl	> 100 µg/mL

###

Test: Selectivity index, ratio of GI90 for human HCT116 cells to MIC90 for dormant state of dormant state of Mycobacterium bovis BCG
Format: toxicity
Conditions: read-out: Selectivity Index
Entries and their selectivity ratio
property_label: selectivity ratio

entry_smiles	property_label	result_value
COc1ccc2cc(/C=C3\CN(C)C/C(=C\c4cc5ccc(OC)cc5nc4Cl)C3=O)c(Cl)nc2c1	selectivity ratio	> 10
COc1ccc2cc(/C=C3\CNC/C(=C\c4cc5ccc(OC)cc5nc4Cl)C3=O)c(Cl)nc2c1	selectivity ratio	> 37
CN1C/C(=C\c2cc3ccccc3nc2Cl)C(=O)/C(=C/c2cc3ccccc3nc2Cl)C1	selectivity ratio	> 13
O=C1/C(=C/c2cc3cc(F)ccc3nc2Cl)CNC/C1=C\c1cc2cc(F)ccc2nc1Cl	selectivity ratio	> 10
CO[C@H]1/C=C/O[C@@]2(C)Oc3c(C)c(O)c4c(O)c(c(/C=N/N5CCN(C)CC5)c(O)c4c3C2=O)NC(=O)/C(C)=C\C=C\[C@H](C)[C@H](O)[C@@H](C)[C@@H](O)[C@@H](C)[C@H](OC(C)=O)[C@@H]1C	selectivity ratio	> 123

###

Entries and their selectivity ratio
Assay: Selectivity index, ratio of GI90 for human A549 cells to MIC90 for dormant state of Mycobacterium tuberculosis H37Ra
Format: toxicity
Conditions: read-out: Selectivity Index

entry_smiles	selectivity ratio
CN1C/C(=C\c2cc3ccccc3nc2Cl)C(=O)/C(=C/c2cc3ccccc3nc2Cl)C1	> 3
CO[C@H]1/C=C/O[C@@]2(C)Oc3c(C)c(O)c4c(O)c(c(/C=N/N5CCN(C)CC5)c(O)c4c3C2=O)NC(=O)/C(C)=C\C=C\[C@H](C)[C@H](O)[C@@H](C)[C@@H](O)[C@@H](C)[C@H](OC(C)=O)[C@@H]1C	> 133
COc1ccc2cc(/C=C3\CNC/C(=C\c4cc5ccc(OC)cc5nc4Cl)C3=O)c(Cl)nc2c1	> 3
COc1ccc2cc(/C=C3\CN(C)C/C(=C\c4cc5ccc(OC)cc5nc4Cl)C3=O)c(Cl)nc2c1	> 12
O=C1/C(=C/c2cc3cc(F)ccc3nc2Cl)CNC/C1=C\c1cc2cc(F)ccc2nc1Cl	> 3

###

Assay: Cytotoxicity against human MCF7 cells assessed as growth inhibition at 3 ug/ml after 48 hrs by MTT assay relative to control
Format: cell-based
Settings: read-out: GI
Entries and their inhibition at 48 h, 3 ug/ml
property_label: inhibition at 48 h, 3 ug/ml (%)

> print(dat)
                                entry.smiles  result.value
 1  CN1C/C(=C\c2cc3ccccc3nc2Cl)C(=O)/C(=C/c2cc3ccccc3nc2Cl)C1          11.4
 2  Cc1cccc2cc(/C=C3\CNC/C(=C\c4cc5cccc(C)c5nc4Cl)C3=O)c(Cl)nc12             0
 3  O=C1/C(=C/c2cc3cc(Cl)ccc3nc2Cl)CNC/C1=C\c1cc2cc(Cl)ccc2nc1Cl          14.3
 4  Cc1ccc2nc(Cl)c(/C=C3\CN(C)C/C(=C\c4cc5cc(C)ccc5nc4Cl)C3=O)cc2c1           1.7
 5  COc1ccc2cc(/C=C3\CNC/C(=C\c4cc5ccc(OC)cc5nc4Cl)C3=O)c(Cl)nc2c1            28
 6  COc1ccc2cc(/C=C3\CN(C)C/C(=C\c4cc5ccc(OC)cc5nc4Cl)C3=O)c(Cl)nc2c1         -13.4
 7  Cc1ccc2cc(/C=C3\CNC/C(=C\c4cc5ccc(C)cc5nc4Cl)C3=O)c(Cl)nc2c1          -3.4
 8  Cc1ccc2cc(/C=C3\CN(C)C/C(=C\c4cc5ccc(C)cc5nc4Cl)C3=O)c(Cl)nc2c1          46.1
 9  COc1ccc2nc(Cl)c(/C=C3\CN(C)C/C(=C\c4cc5cc(OC)ccc5nc4Cl)C3=O)cc2c1          -7.1
10  O=C1/C(=C/c2cc3ccccc3nc2Cl)CNC/C1=C\c1cc2ccccc2nc1Cl          22.2
11  CN1C/C(=C\c2cc3cc(Cl)ccc3nc2Cl)C(=O)/C(=C/c2cc3cc(Cl)ccc3nc2Cl)C1          22.8
12  CN1C/C(=C\c2cc3cc(F)ccc3nc2Cl)C(=O)/C(=C/c2cc3cc(F)ccc3nc2Cl)C1           7.8
13  Cc1ccc2nc(Cl)c(/C=C3\CNC/C(=C\c4cc5cc(C)ccc5nc4Cl)C3=O)cc2c1           0.9
14  Cc1cccc2cc(/C=C3\CN(C)C/C(=C\c4cc5cccc(C)c5nc4Cl)C3=O)c(Cl)nc12             0
15  O=C1/C(=C/c2cc3cc(F)ccc3nc2Cl)CNC/C1=C\c1cc2cc(F)ccc2nc1Cl          40.9
16  COc1ccc2nc(Cl)c(/C=C3\CNC/C(=C\c4cc5cc(OC)ccc5nc4Cl)C3=O)cc2c1           4.7

###

Test: Cytotoxicity against human MCF7 cells assessed as growth inhibition after 48 hrs by MTT assay
Assay type: cell-based
Conditions: MCF7 cells

molecule	inequality_operator	GI50 at 48 h / µg/mL
CO[C@H]1/C=C/O[C@@]2(C)Oc3c(C)c(O)c4c(O)c(c(/C=N/N5CCN(C)CC5)c(O)c4c3C2=O)NC(=O)/C(C)=C\C=C\[C@H](C)[C@H](O)[C@@H](C)[C@@H](O)[C@@H](C)[C@H](OC(C)=O)[C@@H]1C [RIFAMPIN]	>	100
Cc1ccc2cc(/C=C3\CN(C)C/C(=C\c4cc5ccc(C)cc5nc4Cl)C3=O)c(Cl)nc2c1	=	8.23
CN1C/C(=C\c2cc3cc(Cl)ccc3nc2Cl)C(=O)/C(=C/c2cc3cc(Cl)ccc3nc2Cl)C1	=	29.8

###

Assay: Cytotoxicity against human HCT116 cells assessed as growth inhibition at 30 ug/ml after 48 hrs by MTT assay relative to control
Type: cell-based, HCT-116
Settings: read-out: GI
Decision: inhibition at 48 h, 30 ug/ml compared against 20%; not below it gives satisfied, below it gives not satisfied.

> print(dat)
                                entry.smiles     class.name
 1  COc1ccc2cc(/C=C3\CNC/C(=C\c4cc5ccc(OC)cc5nc4Cl)C3=O)c(Cl)nc2c1      satisfied
 2  Cc1ccc2nc(Cl)c(/C=C3\CNC/C(=C\c4cc5cc(C)ccc5nc4Cl)C3=O)cc2c1      satisfied
 3  CN1C/C(=C\c2cc3ccccc3nc2Cl)C(=O)/C(=C/c2cc3ccccc3nc2Cl)C1  not satisfied
 4  Cc1cccc2cc(/C=C3\CNC/C(=C\c4cc5cccc(C)c5nc4Cl)C3=O)c(Cl)nc12  not satisfied
 5  Cc1ccc2cc(/C=C3\CNC/C(=C\c4cc5ccc(C)cc5nc4Cl)C3=O)c(Cl)nc2c1      satisfied
 6  Cc1ccc2cc(/C=C3\CN(C)C/C(=C\c4cc5ccc(C)cc5nc4Cl)C3=O)c(Cl)nc2c1      satisfied
 7  COc1ccc2nc(Cl)c(/C=C3\CN(C)C/C(=C\c4cc5cc(OC)ccc5nc4Cl)C3=O)cc2c1  not satisfied
 8  CN1C/C(=C\c2cc3cc(F)ccc3nc2Cl)C(=O)/C(=C/c2cc3cc(F)ccc3nc2Cl)C1  not satisfied
 9  COc1ccc2cc(/C=C3\CN(C)C/C(=C\c4cc5ccc(OC)cc5nc4Cl)C3=O)c(Cl)nc2c1  not satisfied
10  Cc1ccc2nc(Cl)c(/C=C3\CN(C)C/C(=C\c4cc5cc(C)ccc5nc4Cl)C3=O)cc2c1  not satisfied
11  O=C1/C(=C/c2cc3cc(F)ccc3nc2Cl)CNC/C1=C\c1cc2cc(F)ccc2nc1Cl      satisfied
12  Cc1cccc2cc(/C=C3\CN(C)C/C(=C\c4cc5cccc(C)c5nc4Cl)C3=O)c(Cl)nc12  not satisfied
13  O=C1/C(=C/c2cc3cc(Cl)ccc3nc2Cl)CNC/C1=C\c1cc2cc(Cl)ccc2nc1Cl  not satisfied
14  O=C1/C(=C/c2cc3ccccc3nc2Cl)CNC/C1=C\c1cc2ccccc2nc1Cl  not satisfied
15  COc1ccc2nc(Cl)c(/C=C3\CNC/C(=C\c4cc5cc(OC)ccc5nc4Cl)C3=O)cc2c1  not satisfied
16  CN1C/C(=C\c2cc3cc(Cl)ccc3nc2Cl)C(=O)/C(=C/c2cc3cc(Cl)ccc3nc2Cl)C1  not satisfied

Data credit: ChEMBL document CHEMBL4002627
